Reported percent viability values for a set of sequences
Tested on: MCF10A
experiment-summary: percent viability (nuclei count relative to siNT); higher = more viable cells
cond: 20 nM; 72 h

sequence-data: ACAAAGUACAGCAUUAGCCUUAG [hsa-miR-3973]
percent viability: 29.3%
//
sequence-data: UUCUCUUUCUUUAGCCUUGUGU [hsa-miR-4753-3p]
percent viability: 22.1%
//
sequence-data: AAGGAGAUGCUCAGGCAGAU [hsa-miR-6888-5p]
percent viability: 31%
//
sequence-data: AGGCGGAGACUUGGGCAAUUG [hsa-miR-25-5p]
percent viability: 29.4%
//
sequence-data: ACCGUGGCUUUCGAUUGUUACU [hsa-miR-132-5p]
percent viability: 68.8%
//
sequence-data: UGAAGCCAGCUCUGGUCUGGGC [hsa-miR-4786-3p]
percent viability: 29%
